- Tested on: MT4
- procedure-summary: Antiviral activity against HIV1 assessed as inhibition of HIV1-induced cytopathicity in MT4 cells
- Format: functional, cell-based
- condition-description: Homo sapiens
Each entry below carries its recorded pEC50.
Please keep in mind that pEC50 is minus log10 of the molar concentration; only the number is needed.

# count of solved cases: 4
{"compound": "Cc1cn(C2OC(CO[Si](C)(C)C(C)(C)C)C3(OS(=O)(=O)C=C3N)C2O[Si](C)(C)C(C)(C)C)c(=O)n(CCCNC(=O)[C@@H]2CCCN2C(=O)[C@@H](N)CCC(=O)O)c1=O (stereo not given in full)", "pEC50": 6.31}
{"compound": "Cc1cn(C2OC(CO[Si](C)(C)C(C)(C)C)C3(OS(=O)(=O)C=C3N)C2O[Si](C)(C)C(C)(C)C)c(=O)n(CCCNC(=O)[C@@H](N)C(C)C)c1=O (stereo not given in full)", "pEC50": 6.52}
{"compound": "Cc1cn(C2OC(CO[Si](C)(C)C(C)(C)C)C3(OS(=O)(=O)C=C3N)C2O[Si](C)(C)C(C)(C)C)c(=O)n(CCCNC(=O)CNC(=O)[C@@H](N)C(C)C)c1=O (stereo not given in full)", "pEC50": 6.85}
{"compound": "Cc1cn(C2OC(CO[Si](C)(C)C(C)(C)C)C3(OS(=O)(=O)C=C3N)C2O[Si](C)(C)C(C)(C)C)c(=O)n(CCCNC(=O)[C@@H](NC(=O)[C@@H]2CCCN2C(=O)[C@@H](N)C(C)C)C(C)C)c1=O (stereo not given in full)", "pEC50": 6.66}

### Prompt I am curious: what pEC50 value has been reported for Cc1cn(C2OC(CO[Si](C)(C)C(C)(C)C)C3(OS(=O)(=O)C=C3N)C2O[Si](C)(C)C(C)(C)C)c(=O)n(CCCNC(=O)[C@H](CC(C)C)NC(=O)[C@@H](N)C(C)C)c1=O (stereo not given in full) ?
### Response 6.68

* * *

- System: MT4
- procedure-summary: Antiviral activity against HIV1 assessed as inhibition of HIV1-induced cytopathicity in MT4 cells
- Assay type: functional, cell-based
- condition-description: Homo sapiens
value-kind: pEC50
Please keep in mind that pEC50 is minus log10 of the molar concentration; only the number is needed.

# count of solved cases: 4
{"molecule": "Cc1cn(C2OC(CO[Si](C)(C)C(C)(C)C)C3(OS(=O)(=O)C=C3N)C2O[Si](C)(C)C(C)(C)C)c(=O)n(CCCNC(=O)[C@@H]2CCCN2C(=O)[C@@H](N)Cc2ccc(O)cc2)c1=O (stereo not given in full)", "recorded-measurement": 6.85}
{"molecule": "Cc1cn(C2OC(CO[Si](C)(C)C(C)(C)C)C3(OS(=O)(=O)C=C3N)C2O[Si](C)(C)C(C)(C)C)c(=O)n(CCCNC(=O)[C@@H]2CCCN2C(=O)[C@H](C)N)c1=O (stereo not given in full)", "recorded-measurement": 6.52}
{"molecule": "Cc1cn(C2OC(CO[Si](C)(C)C(C)(C)C)C3(OS(=O)(=O)C=C3N)C2O[Si](C)(C)C(C)(C)C)c(=O)n(CCCNC(=O)[C@@H]2CCCN2C(=O)[C@@H](N)Cc2ccccc2)c1=O (stereo not given in full)", "recorded-measurement": 6.70}
{"molecule": "Cc1cn(C2OC(CO[Si](C)(C)C(C)(C)C)C3(OS(=O)(=O)C=C3N)C2O[Si](C)(C)C(C)(C)C)c(=O)n(CCCNC(=O)[C@@H]2C[C@@H](O)CN2C(=O)[C@@H](N)C(C)C)c1=O (stereo not given in full)", "recorded-measurement": 6.39}

Lab note: next molecule to report on.
### Prompt I am curious: what pEC50 value has been reported for Cc1cn(C2OC(CO[Si](C)(C)C(C)(C)C)C3(OS(=O)(=O)C=C3N)C2O[Si](C)(C)C(C)(C)C)c(=O)n(CCCNC(=O)[C@H]2CCCN2C(=O)[C@@H](N)C(C)C)c1=O (stereo not given in full) ?
### Response 6.31
